B1: NET1 (parent)
chain: RVRPLARVTSLANLISPVRNGAVR

- Variants of: B1
- testDetails: protein stability index of a GFP-peptide fusion (GPS, HEK-293T) (PSI 1-6); higher = more stable;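 also: lentivirally expressed fusions sorted by FACS into six bins by GFP to DsRed ratio, PSI derived from sequencing read proportions per bin multiplied by bin number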
- testConditions: c terminus: a fixed tail appended
Field: protein stability index. Provide a value for each of the variants that follow.

Query (variant): RVRPLARVTSLANFISPVRNGAVR [L14F] ; field requested: protein stability index
2.65

Also, RVRPLARVTSLANLISPQRNGAVR [V18Q] please.
3.63

Also, RVRPLADVTSLANLISPVRNGAVR [R7D] please.
2.84

Also, HVRPLARVTSLANLISPVRNGAVR [R1H] please.
2.87

Also, RVRPLARVTSLANLIAPVRNGAVR [S16A] please.
3.46

Also, RYRPLARVTSLANLISPVRNGAVR [V2Y] please.
2.62

Also, RVRPSARVTSLANLISPVRNGAVR [L5S] please.
3.6

Also, RVRILARVTSLANLISPVRNGAVR [P4I] please.
1.4

Also, RVRPLARVTSLANLISPVENGAVR [R19E] please.
3.55

Also, RVRPLARVTSIANLISPVRNGAVR [L11I] please.
2.83

Also, RVLPLARVTSLANLISPVRNGAVR [R3L] please.
2.34

Also, RVRPLARVTSLANLISPVRNGQVR [A22Q] please.
3.69

Also, RVRHLARVTSLANLISPVRNGAVR [P4H] please.
2.86

Also, RVRPLARVTFLANLISPVRNGAVR [S10F] please.
1.46

Also, RVIPLARVTSLANLISPVRNGAVR [R3I] please.
2.22

Also, RVRPLDRVTSLANLISPVRNGAVR [A6D] please.
2.95

Also, RVRPLARVTSRANLISPVRNGAVR [L11R] please.
3.29

Also, RVRPLARVTSLANLISPVRNGCVR [A22C] please.
2.92

Also, RVRPLASVTSLANLISPVRNGAVR [R7S] please.
2.78

Also, RVRPLARVTSLANLISPGRNGAVR [V18G] please.
3.49

Also, RVRPLARETSLANLISPVRNGAVR [V8E] please.
3.54

Also, RVRPLARVTSLANLISPVRNIAVR [G21I] please.
2.87

Also, RVRPLARQTSLANLISPVRNGAVR [V8Q] please.
2.73

Also, RVRPLARVTSLANLISPVRNGAKR [V23K] please.
3.99

Also, RVRPLARVTSLANLISPVRNGAYR [V23Y] please.
2.9

Also, RVRPLARVTSLANLIKPVRNGAVR [S16K] please.
2.88

Also, RVRPKARVTSLANLISPVRNGAVR [L5K] please.
2.85

Also, RWRPLARVTSLANLISPVRNGAVR [V2W] please.
2.67

Also, RERPLARVTSLANLISPVRNGAVR [V2E] please.
3.69

Also, RVRPLARVTSDANLISPVRNGAVR [L11D] please.
3.24

Also, RVRPLGRVTSLANLISPVRNGAVR [A6G] please.
3.98

Also, RVRPLAAVTSLANLISPVRNGAVR [R7A] please.
3.88

Also, RVRPLARGTSLANLISPVRNGAVR [V8G] please.
2.32

Also, RVRPLYRVTSLANLISPVRNGAVR [A6Y] please.
2.02

Also, RVRPLARVTDLANLISPVRNGAVR [S10D] please.
2.54

Also, RVRPLARVTSLAYLISPVRNGAVR [N13Y] please.
1.38

Also, RVRPLARVQSLANLISPVRNGAVR [T9Q] please.
3.81

Also, RVRPIARVTSLANLISPVRNGAVR [L5I] please.
3.04

Also, RDRPLARVTSLANLISPVRNGAVR [V2D] please.
3.77

Also, RVRPLARVTSLANLISPVVNGAVR [R19V] please.
3.6

Also, RVYPLARVTSLANLISPVRNGAVR [R3Y] please.
2.55

Also, RVRPLARVTSLANLISPVREGAVR [N20E] please.
3.33

Also, RVRPLARVTSLANLTSPVRNGAVR [I15T] please.
3.5

Also, RVRPLARPTSLANLISPVRNGAVR [V8P] please.
3.1

Also, RVRPLARVTSLAELISPVRNGAVR [N13E] please.
3.22

Also, RVRPLARATSLANLISPVRNGAVR [V8A] please.
4.44

Also, RVRPLARFTSLANLISPVRNGAVR [V8F] please.
2.28

Also, RVEPLARVTSLANLISPVRNGAVR [R3E] please.
2.59

Also, RVRPLARVTSLANLISPVRNVAVR [G21V] please.
2.69

Also, RVRPLARVTSLANLISPVRNGAVM [R24M] please.
2.19

Also, RVRPLARVTYLANLISPVRNGAVR [S10Y] please.
2.04

Also, RVRPLARVTSLANLIRPVRNGAVR [S16R] please.
3.03

Also, RVRPLARVNSLANLISPVRNGAVR [T9N] please.
3.38

Also, QVRPLARVTSLANLISPVRNGAVR [R1Q] please.
3.19

Also, RVRPLARVTSLANLILPVRNGAVR [S16L] please.
2.49

Also, RVCPLARVTSLANLISPVRNGAVR [R3C] please.
1.72

Also, EVRPLARVTSLANLISPVRNGAVR [R1E] please.
2.79

Also, RVRPLARVTSLNNLISPVRNGAVR [A12N] please.
2.79

Also, RVRPLARVTSLANLISQVRNGAVR [P17Q] please.
2.29

Also, RVRPLARSTSLANLISPVRNGAVR [V8S] please.
3.99

Also, RVRPLARVTSLANLISPVQNGAVR [R19Q] please.
3.06

Also, RVRPLARVTSLANLISPVRNGAAR [V23A] please.
3.08

Also, RVRPLARVTSLANLISPVRNGAVE [R24E] please.
3.8

Also, KVRPLARVTSLANLISPVRNGAVR [R1K] please.
2.97

Also, RVRPLARVTSLANLMSPVRNGAVR [I15M] please.
3.29

Also, RVRPLARVTSLALLISPVRNGAVR [N13L] please.
1.98

Also, RVRPLARHTSLANLISPVRNGAVR [V8H] please.
2.49

Also, RVRPLQRVTSLANLISPVRNGAVR [A6Q] please.
3.17

Also, RVRPLARVTSTANLISPVRNGAVR [L11T] please.
3.56

Also, RVRPLARVTSLANLIWPVRNGAVR [S16W] please.
2.55

Also, RVRPLARVTSLANLISPVRNGAVF [R24F] please.
2.44

Also, RVRPLARVTSLANLISPVWNGAVR [R19W] please.
1.82

Also, RVRVLARVTSLANLISPVRNGAVR [P4V] please.
2.02

Also, RVRPLARVTSLVNLISPVRNGAVR [A12V] please.
2.89

Also, RVRPLARVTSLANLICPVRNGAVR [S16C] please.
1.25

Also, RVMPLARVTSLANLISPVRNGAVR [R3M] please.
2.46

Also, RVRPLARVTSLAMLISPVRNGAVR [N13M] please.
1.92

Also, RVRPLARVTSLFNLISPVRNGAVR [A12F] please.
2.14

Also, RVRPLARVTSLANLISPVRNGAVA [R24A] please.
2.98

Also, RVQPLARVTSLANLISPVRNGAVR [R3Q] please.
3.33

Also, RVRPLARVTSLANLISPVRNGDVR [A22D] please.
3.35

Also, RVRPLAQVTSLANLISPVRNGAVR [R7Q] please.
3.37

Also, RVRPLARVTWLANLISPVRNGAVR [S10W] please.
1.99

Also, RVRPLARVTNLANLISPVRNGAVR [S10N] please.
3.08

Also, RVRPLARVTSLANLIYPVRNGAVR [S16Y] please.
2.66

Also, RVRPLARVTRLANLISPVRNGAVR [S10R] please.
3.06

Also, RMRPLARVTSLANLISPVRNGAVR [V2M] please.
3.04

Also, RVRPLARVTSLANLISPVRNGATR [V23T] please.
3.13

Also, RVRPLARVTSLANLISPVRNYAVR [G21Y] please.
2.82

Also, RVRPLARVTSLANLISPVRNGAVT [R24T] please.
2.39

Also, RVRPLARVHSLANLISPVRNGAVR [T9H] please.
2.75
